Attribute: growth
- Tested on: NCI/ADR-RES ovarian
- assay-comment: NCI-60 one-dose screen, 48 h (100 = growth as untreated, 0 = no growth, -100 = all killed)
- measurement-parameters: 10 µM unless noted
Compounds without any hit were thinned out: in the full panel of roughly 83,000, 20% have a hit.
Express your answer in %, writing the number without its unit.

Reference set (10 entries):
COc1cc(-c2ccc(-c3ccc(C(=N)N)nc3)s2)cc(OC)c1OC : 78.6
CO/C(=C1/NC(=O)C(Cc2ccc(O)c(Br)c2)N(C)C(=O)C(C)NC(=O)CCC/C=C(\C)CCC(C)OC1=O)c1ccccc1 (stereo not given) : -0.469
COc1ccc(N(C)c2nc(Cl)nc3cnn(C)c23)cc1 : 2.72
C=C(C)C1CCC(=C)C2CCC3(C)OC12/C=C(/COC(C)=O)CCC3O (stereo not given) : 105
CCCCCCN(CCCCCC)CC(O)c1cccc2ccc(Cl)cc12 (stereo not given) : 66.9
N#Cc1cccc(-c2nc3ccccn3c2NCCN2CCOCC2)c1 : 98.2
COc1c(C)cnc(CSc2nc(-c3ccc(C)cc3)cn2-c2ccc(Cl)cc2)c1C : 95.5
N=C(N)c1ccc(-c2ccc(-c3ccc(Cl)c(Cl)c3)o2)nc1 : 32.2
CC1(C)C(=O)/C(=C\c2cccnc2)C[C@]2(C)[C@H]3CC=C4[C@@H]5C[C@@](C)(C(=O)O)CC[C@]5(C)CC[C@@]4(C)[C@]3(C)CC[C@@H]12 : 102
Cc1ccc(C)c2c1C(=O)OC2=O : 98.1

[ask] Suppose we examine the compound CCCCN1CCN(c2ccc3nc(-c4ccc5nc(-c6ccc(OCC)c(OCC)c6)[nH]c5c4)[nH]c3c2)CC1 ; what growth value has been reported?
[reply] 73

[ask] Lookup Cc1cc(NS(=O)(=O)c2ccccc2)c(OS(=O)(=O)c2ccccc2)cc1C
[reply] 102

[ask] Lookup COc1cc(/C=C2\C=C(c3ccccc3)N(CCc3ccccc3)C2=O)cc(OC)c1OC
[reply] 66.8

[ask] Lookup O=C(NCCN1CCC(O)CC1)c1cc2c(o1)C(=O)c1ccccc1C2=O
[reply] -26.3

[ask] Lookup N=C(N)c1ccc(-c2ccc(-c3ccc(Cl)cc3Cl)o2)nc1
[reply] 71.6

[ask] Lookup O=C(c1ccccc1)c1ccc(N2C(=O)C3C4c5ccccc5C(/C=C/C(=O)c5ccccn5)(c5ccccc54)C3C2=O)cc1 (stereo not given)
[reply] 20.5
